Target: UniProt O00507
Sequence (O00507 whole entry, the tested form may be a part): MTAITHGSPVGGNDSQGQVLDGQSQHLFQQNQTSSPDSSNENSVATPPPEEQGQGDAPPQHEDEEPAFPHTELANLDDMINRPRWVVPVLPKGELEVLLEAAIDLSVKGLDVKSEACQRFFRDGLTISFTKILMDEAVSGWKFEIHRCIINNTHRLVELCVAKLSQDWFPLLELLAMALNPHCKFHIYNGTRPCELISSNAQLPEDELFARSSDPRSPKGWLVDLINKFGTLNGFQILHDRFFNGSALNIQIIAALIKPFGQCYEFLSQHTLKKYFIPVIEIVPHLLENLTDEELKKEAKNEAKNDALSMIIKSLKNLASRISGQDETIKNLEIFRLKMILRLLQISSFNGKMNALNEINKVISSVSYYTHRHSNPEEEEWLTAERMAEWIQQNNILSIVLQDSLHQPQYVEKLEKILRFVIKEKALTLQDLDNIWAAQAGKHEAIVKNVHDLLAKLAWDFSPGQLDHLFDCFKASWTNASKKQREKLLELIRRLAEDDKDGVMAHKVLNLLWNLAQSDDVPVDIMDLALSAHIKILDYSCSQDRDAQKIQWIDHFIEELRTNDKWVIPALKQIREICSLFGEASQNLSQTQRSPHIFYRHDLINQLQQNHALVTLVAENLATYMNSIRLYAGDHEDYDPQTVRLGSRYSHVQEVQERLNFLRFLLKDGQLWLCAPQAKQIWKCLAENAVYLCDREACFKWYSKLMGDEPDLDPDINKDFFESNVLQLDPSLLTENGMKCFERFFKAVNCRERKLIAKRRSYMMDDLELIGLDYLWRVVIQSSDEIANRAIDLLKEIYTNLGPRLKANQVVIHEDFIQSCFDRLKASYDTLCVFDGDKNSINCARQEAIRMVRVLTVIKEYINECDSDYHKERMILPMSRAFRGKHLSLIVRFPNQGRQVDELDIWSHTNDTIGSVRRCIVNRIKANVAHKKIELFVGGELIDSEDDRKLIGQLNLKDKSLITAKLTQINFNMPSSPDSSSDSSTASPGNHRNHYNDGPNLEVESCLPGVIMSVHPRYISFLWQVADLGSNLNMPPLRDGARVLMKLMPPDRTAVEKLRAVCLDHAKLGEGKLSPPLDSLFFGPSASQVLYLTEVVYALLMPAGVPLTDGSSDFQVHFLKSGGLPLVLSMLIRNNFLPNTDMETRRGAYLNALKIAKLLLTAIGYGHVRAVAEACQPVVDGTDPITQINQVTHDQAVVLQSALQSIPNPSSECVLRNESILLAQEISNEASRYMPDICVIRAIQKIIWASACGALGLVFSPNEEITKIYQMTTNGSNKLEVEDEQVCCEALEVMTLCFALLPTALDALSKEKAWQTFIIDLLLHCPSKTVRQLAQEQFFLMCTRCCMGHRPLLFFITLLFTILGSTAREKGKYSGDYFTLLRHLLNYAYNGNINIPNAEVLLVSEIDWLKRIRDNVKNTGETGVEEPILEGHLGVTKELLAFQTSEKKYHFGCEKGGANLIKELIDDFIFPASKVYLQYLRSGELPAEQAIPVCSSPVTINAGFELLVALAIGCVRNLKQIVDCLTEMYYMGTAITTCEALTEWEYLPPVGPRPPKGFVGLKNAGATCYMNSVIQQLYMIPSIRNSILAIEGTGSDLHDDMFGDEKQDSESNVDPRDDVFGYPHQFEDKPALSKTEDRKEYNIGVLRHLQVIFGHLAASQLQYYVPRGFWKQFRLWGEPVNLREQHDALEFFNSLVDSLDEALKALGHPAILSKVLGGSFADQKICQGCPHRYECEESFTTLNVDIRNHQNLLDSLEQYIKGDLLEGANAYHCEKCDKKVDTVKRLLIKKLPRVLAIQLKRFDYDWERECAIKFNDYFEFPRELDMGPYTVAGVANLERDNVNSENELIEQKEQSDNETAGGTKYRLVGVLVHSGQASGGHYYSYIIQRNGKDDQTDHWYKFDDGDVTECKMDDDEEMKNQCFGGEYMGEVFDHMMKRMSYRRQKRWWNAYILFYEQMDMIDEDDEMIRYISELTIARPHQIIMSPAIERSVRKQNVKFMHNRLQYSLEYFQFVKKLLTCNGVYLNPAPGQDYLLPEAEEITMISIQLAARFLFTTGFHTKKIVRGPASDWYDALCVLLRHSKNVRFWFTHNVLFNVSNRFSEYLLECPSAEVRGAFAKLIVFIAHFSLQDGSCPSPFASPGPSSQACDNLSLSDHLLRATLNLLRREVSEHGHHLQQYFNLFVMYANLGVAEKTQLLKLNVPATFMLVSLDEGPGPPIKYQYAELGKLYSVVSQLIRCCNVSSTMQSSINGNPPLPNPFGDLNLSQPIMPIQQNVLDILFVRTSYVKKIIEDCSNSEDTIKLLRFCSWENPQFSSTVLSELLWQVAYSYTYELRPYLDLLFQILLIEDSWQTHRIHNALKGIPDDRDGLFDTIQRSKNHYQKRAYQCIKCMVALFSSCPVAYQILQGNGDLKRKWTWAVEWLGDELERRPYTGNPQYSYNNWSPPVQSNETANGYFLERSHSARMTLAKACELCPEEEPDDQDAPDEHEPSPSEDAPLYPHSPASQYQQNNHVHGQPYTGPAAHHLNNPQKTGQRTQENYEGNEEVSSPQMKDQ
Test: log2 ratio of Biotin-Ahx-Ub-VS probe labelling (fragment/DMSO); higher = less target engagement (more negative = stronger competition), active = hit call of the paper (q ≤ 0.05, log2 ratio ≤ -1)
Conditions: compound concentration: 200 uM; treatment time: 3 h
Outcome: true (1) for log2 ratio of Biotin-Ahx-Ub-VS probe labelling of at least -0.3; false (0) for anything lower.

>  <compound>
Cc1ncc2c(n1)CCN(C(=O)CCl)C2

>  <assigned.class>
true (1)

$$$$
>  <compound>
CN(C)S(=O)(=O)c1ccccc1CNC(=O)CCl

>  <assigned.class>
true (1)

$$$$
>  <compound>
CC(NC(=O)CCl)c1noc(Cc2ccccc2)n1 (centres undefined)

>  <assigned.class>
false (0)

$$$$
>  <compound>
CN(CCc1ncc(Br)cn1)C(=O)CCl.Cl

>  <assigned.class>
true (1)

$$$$
>  <compound>
O=C(CCl)N1CCC(C(=O)N2CCCCCC2)CC1

>  <assigned.class>
true (1)

$$$$
>  <compound>
O=C(CCl)NC1(c2ccc3c(c2)OCCO3)CCCC1

>  <assigned.class>
true (1)

$$$$
>  <compound>
Cn1cc(CN(Cc2ccc(Cl)cc2)C(=O)CCl)cn1

>  <assigned.class>
false (0)

$$$$
>  <compound>
CCN(C(=O)CCl)C1CCS(=O)(=O)C1 (centres undefined)

>  <assigned.class>
true (1)

$$$$
>  <compound>
Cl.O=C(CCl)NCCN1CCc2ccccc21

>  <assigned.class>
false (0)

$$$$
>  <compound>
COc1cc(Cl)c(C)cc1NC(=O)CCl

>  <assigned.class>
false (0)

$$$$

**Query** # bool: log2 ratio of Biotin-Ahx-Ub-VS probe labelling of CCC(NC(=O)CCl)c1ccc(Cl)cc1 (centres undefined) >= -0.3
**Result** true (1)

**Query** Threshold query (log2 ratio of Biotin-Ahx-Ub-VS probe labelling >= -0.3) on `CC(=O)Nc1ccc(NC(=O)CCl)cc1`
**Result** false (0)

**Query** log2 ratio of Biotin-Ahx-Ub-VS probe labelling >= -0.3 for Cc1cc(C2CCCN2C(=O)CCl)nn1C.Cl (centres undefined) ?
**Result** true (1)

* * *

Molecular target: OTUD6B (UniProt Q8N6M0)
Sequence (Q8N6M0 whole entry, the tested form may be a part): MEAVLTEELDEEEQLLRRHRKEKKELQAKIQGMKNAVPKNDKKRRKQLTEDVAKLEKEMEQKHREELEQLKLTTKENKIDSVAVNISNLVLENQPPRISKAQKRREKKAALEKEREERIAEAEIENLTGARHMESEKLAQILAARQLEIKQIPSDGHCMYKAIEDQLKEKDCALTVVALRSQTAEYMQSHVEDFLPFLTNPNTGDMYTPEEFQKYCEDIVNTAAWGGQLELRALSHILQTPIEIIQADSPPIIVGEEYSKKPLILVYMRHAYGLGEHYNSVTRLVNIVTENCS
Assay: log2 ratio of Biotin-Ahx-Ub-VS probe labelling (fragment/DMSO); higher = less target engagement (more negative = stronger competition), active = hit call of the paper (q ≤ 0.05, log2 ratio ≤ -1)
Conditions: compound concentration: 200 uM; treatment time: 3 h
Log the outcome using a class from active, inactive

Solved cases below.
>  <compound>
Cl.O=C(CCl)N1CCC(n2nc3ccccc3n2)CC1

>  <target.system>
OTUD6B (UniProt Q8N6M0)

>  <assigned.class>
inactive

$$$$
>  <compound>
CS(=O)(=O)c1ccc(NC(=O)CCl)cc1

>  <target.system>
OTUD6B (UniProt Q8N6M0)

>  <assigned.class>
inactive

$$$$
>  <compound>
O=C(CCl)N1CCN(C(=O)N2CCCCC2)CC1

>  <target.system>
OTUD6B (UniProt Q8N6M0)

>  <assigned.class>
active

$$$$
>  <compound>
O=C(CCl)N1CCC(C(O)c2ccc(F)cc2)CC1 (configuration not stated)

>  <target.system>
OTUD6B (UniProt Q8N6M0)

>  <assigned.class>
inactive

$$$$
>  <compound>
CCN(C(=O)CCl)C1CCS(=O)(=O)C1 (configuration not stated)

>  <target.system>
OTUD6B (UniProt Q8N6M0)

>  <assigned.class>
inactive

$$$$

**Query** Check the results log: what was the call for `O=C(CCl)NC1CCC2(CC1)OCCO2` ?
**Result** inactive

**Query** Outcome logged for `O=C(CCl)NCc1ccc(N2CCOCC2)c(F)c1` in this assay:
**Result** inactive

* * *

Biological target: USP25 (UniProt Q9UHP3)
Sequence (whole entry): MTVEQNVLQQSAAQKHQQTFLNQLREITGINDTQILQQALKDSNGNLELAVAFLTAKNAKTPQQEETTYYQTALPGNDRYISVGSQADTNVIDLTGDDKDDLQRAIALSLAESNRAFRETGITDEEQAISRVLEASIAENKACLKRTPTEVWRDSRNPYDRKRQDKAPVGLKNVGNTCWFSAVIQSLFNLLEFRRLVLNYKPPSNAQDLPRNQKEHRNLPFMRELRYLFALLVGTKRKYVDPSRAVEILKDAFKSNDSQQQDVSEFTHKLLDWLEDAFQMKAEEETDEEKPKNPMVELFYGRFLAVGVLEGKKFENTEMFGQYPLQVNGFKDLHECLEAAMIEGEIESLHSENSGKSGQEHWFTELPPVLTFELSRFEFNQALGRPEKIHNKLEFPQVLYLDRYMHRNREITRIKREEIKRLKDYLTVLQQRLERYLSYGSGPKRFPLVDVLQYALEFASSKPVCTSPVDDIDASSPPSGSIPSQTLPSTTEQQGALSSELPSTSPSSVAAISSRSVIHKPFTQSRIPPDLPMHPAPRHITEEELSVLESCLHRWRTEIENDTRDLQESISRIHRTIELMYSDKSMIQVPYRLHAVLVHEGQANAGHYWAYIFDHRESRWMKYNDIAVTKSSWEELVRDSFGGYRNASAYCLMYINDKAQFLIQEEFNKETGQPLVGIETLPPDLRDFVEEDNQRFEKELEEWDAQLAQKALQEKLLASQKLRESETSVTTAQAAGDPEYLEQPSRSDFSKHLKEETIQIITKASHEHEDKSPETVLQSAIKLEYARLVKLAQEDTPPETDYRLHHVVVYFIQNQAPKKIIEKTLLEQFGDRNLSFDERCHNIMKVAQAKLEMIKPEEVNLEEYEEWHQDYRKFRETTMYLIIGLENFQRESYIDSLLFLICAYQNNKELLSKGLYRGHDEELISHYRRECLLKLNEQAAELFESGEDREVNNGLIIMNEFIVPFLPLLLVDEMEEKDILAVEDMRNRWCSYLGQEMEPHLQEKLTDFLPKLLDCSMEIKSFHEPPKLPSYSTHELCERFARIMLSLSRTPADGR
Assay: log2 ratio of Biotin-Ahx-Ub-VS probe labelling (fragment/DMSO); higher = less target engagement (more negative = stronger competition), active = hit call of the paper (q ≤ 0.05, log2 ratio ≤ -1)
Details: compound concentration: 200 uM; treatment time: 3 h
Property: log2 ratio of Biotin-Ahx-Ub-VS probe labelling; scope: individual compounds
Note: the reply should be a number with no unit written.

>  <compound>
CC(NC(=O)CCl)c1noc(Cc2ccccc2)n1 (configuration not stated)

>  <test.result>
-0.593

$$$$
>  <compound>
COc1ccc(CN(C)C(=O)CCl)cc1

>  <test.result>
-0.245

$$$$

**Query** For O=C(CCl)N1CCOC(CCc2ccccc2)C1 (configuration not stated) , write its log2 ratio of Biotin-Ahx-Ub-VS probe labelling.
**Result** -0.497

* * *

Target: UniProt Q9P2H5
Sequence (Q9P2H5 whole entry, the tested form may be a part): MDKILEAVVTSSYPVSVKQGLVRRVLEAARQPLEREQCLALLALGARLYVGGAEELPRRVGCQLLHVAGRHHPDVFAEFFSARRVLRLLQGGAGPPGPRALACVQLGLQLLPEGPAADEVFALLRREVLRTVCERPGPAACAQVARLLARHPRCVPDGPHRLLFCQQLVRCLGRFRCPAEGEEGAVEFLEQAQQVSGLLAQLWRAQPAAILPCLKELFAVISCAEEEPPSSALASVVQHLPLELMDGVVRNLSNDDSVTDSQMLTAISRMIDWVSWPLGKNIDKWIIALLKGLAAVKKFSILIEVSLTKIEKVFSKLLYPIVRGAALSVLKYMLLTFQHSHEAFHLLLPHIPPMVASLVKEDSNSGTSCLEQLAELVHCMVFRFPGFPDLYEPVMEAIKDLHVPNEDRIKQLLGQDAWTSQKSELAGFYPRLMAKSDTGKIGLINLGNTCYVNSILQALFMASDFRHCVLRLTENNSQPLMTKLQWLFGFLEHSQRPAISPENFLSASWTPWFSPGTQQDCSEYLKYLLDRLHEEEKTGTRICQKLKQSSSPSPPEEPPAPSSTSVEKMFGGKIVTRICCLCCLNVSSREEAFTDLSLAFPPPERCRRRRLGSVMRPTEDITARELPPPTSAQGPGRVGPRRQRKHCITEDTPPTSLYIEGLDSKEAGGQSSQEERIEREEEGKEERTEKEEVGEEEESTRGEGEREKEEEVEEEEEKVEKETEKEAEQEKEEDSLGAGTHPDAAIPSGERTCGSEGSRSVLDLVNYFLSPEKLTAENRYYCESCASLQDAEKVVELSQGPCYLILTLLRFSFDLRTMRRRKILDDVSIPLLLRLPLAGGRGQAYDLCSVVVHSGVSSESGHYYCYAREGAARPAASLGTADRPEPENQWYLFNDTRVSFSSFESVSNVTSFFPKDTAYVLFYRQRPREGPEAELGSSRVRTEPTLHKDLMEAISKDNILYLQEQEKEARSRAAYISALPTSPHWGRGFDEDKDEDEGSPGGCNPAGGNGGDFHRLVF
Assay: log2 ratio of Biotin-Ahx-Ub-VS probe labelling (fragment/DMSO); higher = less target engagement (more negative = stronger competition), active = hit call of the paper (q ≤ 0.05, log2 ratio ≤ -1)
Details: compound concentration: 200 uM; treatment time: 3 h
Reported log2 ratio of Biotin-Ahx-Ub-VS probe labelling by item:

Would you please look over these solved cases?
>  <structure>
O=C(CCl)Nc1ccc(Cl)c(F)c1

>  <test.result>
-0.0638 (inactive)

$$$$
>  <structure>
Cc1c(C#N)c(NC(=O)CCl)n(Cc2ccco2)c1C

>  <test.result>
-0.304 (inactive)

$$$$

Shifting focus to the molecule that follows.
**Query** Tell me log2 ratio of Biotin-Ahx-Ub-VS probe labelling reported for `O=C(CCl)NCc1ccc(Cl)cc1`
**Result** 0.00401 (inactive)

* * *

Biological target: USP38 (UniProt Q8NB14)
Sequence (Q8NB14 whole entry, the tested form may be a part): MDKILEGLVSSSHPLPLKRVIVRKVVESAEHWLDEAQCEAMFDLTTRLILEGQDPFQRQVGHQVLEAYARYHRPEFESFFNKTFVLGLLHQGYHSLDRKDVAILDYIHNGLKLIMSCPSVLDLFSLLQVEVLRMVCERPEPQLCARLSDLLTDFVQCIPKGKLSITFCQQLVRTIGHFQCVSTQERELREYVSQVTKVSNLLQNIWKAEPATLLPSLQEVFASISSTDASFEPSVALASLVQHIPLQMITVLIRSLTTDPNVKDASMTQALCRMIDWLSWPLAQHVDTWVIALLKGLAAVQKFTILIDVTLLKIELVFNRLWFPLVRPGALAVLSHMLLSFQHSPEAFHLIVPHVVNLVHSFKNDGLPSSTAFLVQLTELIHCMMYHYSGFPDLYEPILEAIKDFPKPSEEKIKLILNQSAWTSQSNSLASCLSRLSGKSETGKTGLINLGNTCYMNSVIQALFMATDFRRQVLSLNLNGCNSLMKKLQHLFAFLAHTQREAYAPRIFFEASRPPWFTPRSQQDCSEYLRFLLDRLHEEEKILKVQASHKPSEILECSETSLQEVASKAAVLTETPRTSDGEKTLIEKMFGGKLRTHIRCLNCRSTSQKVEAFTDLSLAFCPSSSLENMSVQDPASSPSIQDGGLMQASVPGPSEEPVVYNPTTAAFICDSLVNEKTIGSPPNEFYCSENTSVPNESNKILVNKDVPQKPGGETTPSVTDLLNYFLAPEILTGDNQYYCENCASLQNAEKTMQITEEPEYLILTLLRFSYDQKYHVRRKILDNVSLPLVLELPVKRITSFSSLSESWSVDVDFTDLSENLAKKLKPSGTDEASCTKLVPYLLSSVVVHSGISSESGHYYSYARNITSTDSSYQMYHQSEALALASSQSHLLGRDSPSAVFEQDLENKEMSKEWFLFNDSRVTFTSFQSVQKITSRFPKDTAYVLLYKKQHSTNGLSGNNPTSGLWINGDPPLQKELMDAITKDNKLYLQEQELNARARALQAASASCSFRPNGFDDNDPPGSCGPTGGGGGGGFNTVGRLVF
Test: log2 ratio of Biotin-Ahx-Ub-VS probe labelling (fragment/DMSO); higher = less target engagement (more negative = stronger competition), active = hit call of the paper (q ≤ 0.05, log2 ratio ≤ -1)
Conditions: compound concentration: 200 uM; treatment time: 3 h
Listing: log2 ratio of Biotin-Ahx-Ub-VS probe labelling of selected compounds
When you answer, write just the number.

>  <compound>
NC(=O)C1CCCCN1C(=O)CCl (configuration not stated)

>  <test.result>
0.0849

$$$$
>  <compound>
COc1cccc(CN(C)C(=O)CCl)c1

>  <test.result>
0.0437

$$$$
>  <compound>
O=C(CCl)Nc1cc(Cl)ccc1-n1cncn1

>  <test.result>
-0.932

$$$$
>  <compound>
Cc1ccccc1OCC(=O)N1CCN(C(=O)CCl)CC1

>  <test.result>
-0.159

$$$$
>  <compound>
O=C(CCl)NCc1ccc(N2CCOCC2)nc1

>  <test.result>
-0.0678

$$$$

**Query** Answer with the recorded log2 ratio of Biotin-Ahx-Ub-VS probe labelling of CC(NC(=O)CCl)c1cc2n(n1)CCCC2.Cl (configuration not stated) only.
**Result** -0.215

**Query** Provide log2 ratio of Biotin-Ahx-Ub-VS probe labelling value for the following compound: Cc1ccc(CC(CO)CNC(=O)CCl)cc1 (configuration not stated)
**Result** -0.239
